Each entry below lists one item and its recorded IC50 value.
# measuredTarget: Adrenergic receptor beta (Rattus norvegicus, UniProt P18090+P10608+P26255)
# protocol: The compound was evaluated for the inhibition of [125I]cyanopindolol binding to beta adrenergic receptor in rat reticulocyte membrane.
# Type: cell membranes

{"columns": ["molecule", "IC50"],
 "data": [
  ["CC(C)(Cc1ccc(NC(=O)CBr)cc1)NCC(O)c1ccc(O)c2nc(O)ccc12 (centres undefined)", "5.3 nM"],
  ["CC(C)(Cc1ccccc1)NCC(O)c1ccc(O)c2nc(O)ccc12 (centres undefined)", "3.1 nM"],
  ["CC(C)(Cc1ccc(I)cc1)NCC(O)c1ccc(O)c2nc(O)ccc12 (centres undefined)", "7.6 nM"],
  ["CC(C)(Cc1ccc(N)cc1)NCC(O)c1ccc(O)c2nc(O)ccc12 (centres undefined)", "22 nM"]
]}
